- tested_on: T1, PUF4 RNA-binding domain (Saccharomyces cerevisiae, UniProt P25339 537-888)
- T1 sequence: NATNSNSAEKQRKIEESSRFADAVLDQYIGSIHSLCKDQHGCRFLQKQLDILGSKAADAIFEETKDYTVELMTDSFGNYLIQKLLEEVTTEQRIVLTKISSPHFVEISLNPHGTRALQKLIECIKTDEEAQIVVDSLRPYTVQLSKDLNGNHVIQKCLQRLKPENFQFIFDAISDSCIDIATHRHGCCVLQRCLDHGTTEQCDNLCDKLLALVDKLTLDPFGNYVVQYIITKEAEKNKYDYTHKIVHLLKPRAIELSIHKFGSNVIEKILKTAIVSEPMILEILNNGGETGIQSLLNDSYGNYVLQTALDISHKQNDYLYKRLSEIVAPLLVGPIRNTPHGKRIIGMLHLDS
- assay_method_text: Mg; RNA-MaP; 20 mM Na-HEPES pH 7.4, 30 mM KOAc, 0.75 mM MgCl2, 0.1% Tween-20, 5% glycerol, 0.1 mg/mL BSA, 2 mM DTT; 25 C; 0.0125-409.6 nM protein
- run_parameters: tags: N-His6-TEV cleaved; C-SNAP kept, Cy3B-labelled; label: tethered on chip by stalled RNA polymerase
assay_endpoint: Kd (nM)

- Ie_S4_P4E.1_K4.1_C4.1_H4.1_A4.1_[+5CTCTC]_F4.1_T4.1 (ssRNA) RNA: UUUGACAACUGAUCGUUCUUUCUUGUAUCUCUCAUUAUUCUUUCUCGAUCAGUUGUCUUU: 42.8
- Ic_S2_P5E.1_K5.1_C5.1_H5.1_A5.1_[T5C]_[T6A]_[A7T]_F5.1_[T8G]_[T9G]_[A10T]_T5.1 (ssRNA) RNA: UUUGAUUAAUAUGAUAUCGUUCUUUCUUGUACAUGGUUUCUUUCUCGAUAUCAUAUUAAUCUUU: 45.8
- Ic_S4_P4E.1_K4.1_C4.1_H4.1_A4.1_[T5A]_[A6C]_[T7G]_F4.1_[A9C]_T4.1 (ssRNA) RNA: UUUGACAACUGAUCGUUCUUUCUUGUAACGUCUUCUUUCUCGAUCAGUUGUCUUU: 919
- Id_ii_S2_P5E.3_K5.2_C5.2_[C-2T]_[T-1A]_H5.2_A5.1_F5.1_T5.2_[T11A]_[A12C] (ssRNA) RNA: UUUGAUUAAUAUGAUAUCGUUCUUUCUUAUAUAUUAUUAACUUCUUUCUCGAUAUCAUAUUAAUCUUU: 9.27
- Ib_S2_P5E.1_K5.1_C5.1_H5.1_[T1A]_[G2C]_A5.1_F5.1_T5.1 (ssRNA) RNA: UUUGAUUAAUAUGAUAUCGUUCUUUCUACUAUUAUUAUUCUUUCUCGAUAUCAUAUUAAUCUUU: 1400
